Target: P2Y receptor (turkey erythrocyte membranes) (Meleagris gallopavo, UniProt P49652)
Construct: from tissue; host or cells: washed turkey erythrocytes, ghosts prepared by hypotonic lysis
Sequence (P49652 whole entry): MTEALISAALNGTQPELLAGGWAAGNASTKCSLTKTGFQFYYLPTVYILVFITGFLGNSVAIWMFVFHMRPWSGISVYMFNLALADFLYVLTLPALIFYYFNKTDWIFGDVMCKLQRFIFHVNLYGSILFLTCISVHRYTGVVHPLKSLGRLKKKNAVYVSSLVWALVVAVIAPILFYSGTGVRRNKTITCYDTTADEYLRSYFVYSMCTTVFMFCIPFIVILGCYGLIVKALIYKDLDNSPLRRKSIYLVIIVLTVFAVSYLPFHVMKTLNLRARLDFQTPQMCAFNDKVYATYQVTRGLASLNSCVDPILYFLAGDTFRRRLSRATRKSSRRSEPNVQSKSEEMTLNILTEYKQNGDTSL
Test: Stimulation of phospholipase C (inositol phosphate formation) in turkey erythrocyte membranes
Format: biochemical
Conditions: K0.5, turkey erythrocyte membranes; read from graph
Answer each item with its documented EC50.
Enter the number, and then the unit.

// sample Nc1ncnc2c1ncn2[C@@H]1O[C@H](COP(=O)(O)OP(=O)(O)OP(=O)(O)O)[C@@H](O)[C@H]1O [ATP, adenosine-5'-triphosphate, reference compound] , its EC50 was 10 µM

// sample Nc1ncnc2c1ncn2[C@@H]1O[C@H](COP(=O)(O)OP(=O)(O)O)[C@@H](O)[C@H]1O [ADP, adenosine 5'-diphosphate, reference compound] , its EC50 was 3.16 µM

====

Biological target: P2Y receptor (turkey erythrocyte membranes) (Meleagris gallopavo)
Construct: from tissue; host or cells: washed turkey erythrocytes, ghosts prepared by hypotonic lysis
Assay: Stimulation of phospholipase C (inositol phosphate formation) in turkey erythrocyte membranes
Type: biochemical
Conditions: turkey erythrocyte membranes; mean ± S.E.M. for at least 2 determinations; read-out: phosphatidyl inositol metabolism (K0.5, nM) erythrocyte
property_measured: EC50 (nM)
Number only, in nM; omit the unit.

// sample CNc1ncnc2c1ncn2[C@@H]1O[C@H](COP(=O)(O)OP(=O)(O)OP(=O)(O)O)[C@@H](O)[C@H]1O [N^6 -Me-ATP, N^6 -Methyl-adenosine 5'-triphosphate] , its EC50 was 19000

// sample `N#CCCCCCCSc1nc(N)c2ncn([C@@H]3O[C@H](COP(=O)(O)O)[C@@H](O)[C@H]3O)c2n1` , its EC50 was 37000

// sample `Nc1nc(SCCc2ccccc2)nc2c1ncn2[C@@H]1O[C@H](COP(=O)(O)OP(=O)(O)OP(=O)(O)O)[C@@H](O)[C@H]1O` , its EC50 was 30

// sample `CSc1nc(N)c2ncn([C@@H]3O[C@H](COP(=O)(O)OP(=O)(O)OP(=O)(O)O)[C@@H](O)[C@H]3O)c2n1` , its EC50 was 8

====

Target: P2Y receptor (turkey erythrocyte membranes) (Meleagris gallopavo, UniProt P49652)
Construct: from tissue; host or cells: washed turkey erythrocytes, ghosts prepared by hypotonic lysis
Assay: Stimulation of phospholipase C (inositol phosphate formation) in turkey erythrocyte membranes
Type: biochemical
Settings: relative to ATP
property_measured: fold less potent than ATP, turkey erythrocyte

// sample Nc1ncnc2c1ncn2[C@@H]1O[C@H](COP(=O)(O)OP(=O)(O)O)[C@@H](O)[C@H]1O [ADP, adenosine 5'-diphosphate, reference compound] , its fold less potent than ATP, turkey erythrocyte was 3 -fold

// sample CNc1ncnc2c1ncn2[C@@H]1O[C@H](COP(=O)(O)OP(=O)(O)OP(=O)(O)O)[C@@H](O)[C@H]1O [N^6 -Me-ATP, N^6 -Methyl-adenosine 5'-triphosphate] , its fold less potent than ATP, turkey erythrocyte was 7 -fold

// sample Nc1ncnc2c1ncn2[C@@H]1O[C@H](COP(O)(=S)OP(=O)(O)OP(=O)(O)O)[C@@H](O)[C@H]1O (stereo partly drawn) [ATP-α-S (S-isomer), reference compound] , its fold less potent than ATP, turkey erythrocyte was 2 -fold

// sample Nc1ncnc2c1ncn2[C@H]1C[C@H](O)[C@@H](COP(=O)(O)OP(=O)(O)OP(=O)(O)O)O1 [2'-Deoxy-ATP, 2'-deoxy-ATP, reference compound] , its fold less potent than ATP, turkey erythrocyte was 7 -fold

====

Target: P2Y receptor (turkey erythrocyte membranes) (Meleagris gallopavo)
Construct: from tissue; host or cells: washed turkey erythrocytes, ghosts prepared by hypotonic lysis
Assay: Stimulation of phospholipase C (inositol phosphate formation) in turkey erythrocyte membranes
Format: biochemical
Settings: phosphatidyl inositol metabolism (K0.5, nM) erythrocyte, turkey erythrocyte membranes; mean ± S.E.M. for at least 2 determinations
property_measured: EC50 (nM)
Number only, in nM; omit the unit.

// sample Nc1ncnc2c1ncn2[C@@H]1O[C@H](COP(O)(=S)OP(=O)(O)OP(=O)(O)O)[C@@H](O)[C@H]1O (stereo partly drawn) [ATP-α-S (S-isomer), reference compound] , its EC50 was 8930

====

Answer each item with its documented relaxation pD2, mes. artery.
Biological target: P2Y receptor (mesenteric artery)
Test: Relaxation of rabbit mesenteric artery
Settings: log molar units
Enter the number alone.

// sample Nc1ncnc2c1ncn2[C@@H]1O[C@H](COP(=O)(O)O)[C@@H](O)[C@H]1O [AMP, adenosine 5'-monophosphate, reference compound] , its relaxation pD2, mes. artery was 5.0

// sample `N#CCCCCCCSc1nc(N)c2ncn([C@@H]3O[C@H](COP(=O)(O)OP(=O)(O)OP(=O)(O)O)[C@@H](O)[C@H]3O)c2n1` , its relaxation pD2, mes. artery was 7.0

// sample Nc1ncnc2c1ncn2[C@@H]1O[C@H](COP(=O)(O)OP(=O)(O)O)[C@@H](O)[C@H]1O [ADP, adenosine 5'-diphosphate, reference compound] , its relaxation pD2, mes. artery was 5.2

// sample `Nc1nc(SCCc2ccc([N+](=O)[O-])cc2)nc2c1ncn2[C@@H]1O[C@H](COP(=O)(O)O)[C@@H](O)[C@H]1O` , its relaxation pD2, mes. artery was 5.0

// sample `N#CCCCCCCSc1nc(N)c2ncn([C@@H]3O[C@H](COP(=O)(O)O)[C@@H](O)[C@H]3O)c2n1` , its relaxation pD2, mes. artery was 6.2

// sample `Nc1nc(SCCc2ccc([N+](=O)[O-])cc2)nc2c1ncn2[C@@H]1O[C@H](COP(=O)(O)OP(=O)(O)OP(=O)(O)O)[C@@H](O)[C@H]1O` , its relaxation pD2, mes. artery was 7.0

// sample Nc1ncnc2c1ncn2[C@@H]1O[C@H](COP(=O)(O)OP(=O)(O)NP(=O)(O)O)[C@@H](O)[C@H]1O [AppNHp, reference compound] , its relaxation pD2, mes. artery was 6.6

// sample C=CCCCCSc1nc(N)c2ncn([C@@H]3O[C@H](COP(=O)(O)OP(=O)(O)OP(=O)(O)O)[C@@H](O)[C@H]3O)c2n1 [2-(S-Hexenyl)thio-ATP] , its relaxation pD2, mes. artery was 7.0

// sample Nc1nc(Cl)nc2c1ncn2[C@@H]1O[C@H](COP(=O)(O)OP(=O)(O)OP(=O)(O)O)[C@@H](O)[C@H]1O [2-Cl-ATP, 2-chloro-ATP, reference compound] , its relaxation pD2, mes. artery was 6.2

// sample `C=CCCCCSc1nc(N)c2ncn([C@@H]3O[C@H](COP(=O)(O)O)[C@@H](O)[C@H]3O)c2n1` , its relaxation pD2, mes. artery was 6.3

====

Biological target: P2Y receptor (turkey erythrocyte membranes) (Meleagris gallopavo)
Construct: from tissue; host or cells: washed turkey erythrocytes, ghosts prepared by hypotonic lysis
Assay: Stimulation of phospholipase C (inositol phosphate formation) in turkey erythrocyte membranes
Assay type: biochemical
Details: turkey erythrocyte membranes; read-out: K0.5
Answer each item with its documented EC50.
Number only, in nM; omit the unit.

// sample C=CCCCCSc1nc(N)c2ncn([C@@H]3O[C@H](COP(=O)(O)OP(=O)(O)O)[C@@H](O)[C@H]3O)c2n1 [2-(5-Hexenyl)thio-ADP] , its EC50 was 4

// sample N#CCCCCCCSc1nc(N)c2ncn([C@@H]3O[C@H](COP(=O)(O)O)[C@@H](O)[C@H]3O)c2n1 [2-(6-Cyanohexyl)thio-AMP, 2-(6-cyanohexylthio)-AMP] , its EC50 was 37000

====

Biological target: P2X receptor (vas deferens) (Cavia porcellus, UniProt A0A286XVA9)
Sequence (A0A286XVA9 1-399): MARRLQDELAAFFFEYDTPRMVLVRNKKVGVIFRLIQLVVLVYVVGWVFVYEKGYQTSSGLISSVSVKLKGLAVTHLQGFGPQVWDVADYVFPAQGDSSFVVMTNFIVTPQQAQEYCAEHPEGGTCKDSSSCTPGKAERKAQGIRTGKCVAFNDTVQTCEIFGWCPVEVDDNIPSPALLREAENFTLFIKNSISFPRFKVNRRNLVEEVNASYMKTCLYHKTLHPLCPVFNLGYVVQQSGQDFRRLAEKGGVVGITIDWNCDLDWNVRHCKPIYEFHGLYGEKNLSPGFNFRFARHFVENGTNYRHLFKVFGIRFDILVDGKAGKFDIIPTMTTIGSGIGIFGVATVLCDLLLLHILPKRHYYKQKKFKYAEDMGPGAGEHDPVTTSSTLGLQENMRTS
Assay: Contraction of guinea pig isolated vas deferens

molecule	activity/potency in words, vas deferens
Nc1ncnc2c1ncn2[C@H]1CC[C@@H](COP(=O)(O)OP(=O)(O)OP(=O)(O)O)O1 [2',3'-Dideoxy-ATP, 2',3'-dideoxy-ATP, reference compound]	≈ATP

====

Target: P2X receptor (saphenous artery) (Oryctolagus cuniculus)
Construct: and rabbit saphenous artery; from tissue; host or cells: rabbit saphenous artery
Sequence (G1U3D6 1-399): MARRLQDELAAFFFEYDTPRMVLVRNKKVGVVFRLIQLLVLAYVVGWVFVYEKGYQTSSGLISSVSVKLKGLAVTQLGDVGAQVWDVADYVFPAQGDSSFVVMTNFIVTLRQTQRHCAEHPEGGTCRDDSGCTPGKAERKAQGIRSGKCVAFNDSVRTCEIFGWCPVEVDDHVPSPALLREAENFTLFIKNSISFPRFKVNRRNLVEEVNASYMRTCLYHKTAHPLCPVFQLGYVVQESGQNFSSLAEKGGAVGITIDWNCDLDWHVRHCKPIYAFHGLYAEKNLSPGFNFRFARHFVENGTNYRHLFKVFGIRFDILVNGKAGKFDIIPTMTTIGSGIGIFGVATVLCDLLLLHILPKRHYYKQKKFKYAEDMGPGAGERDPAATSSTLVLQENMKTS
Experiment: Contraction of rabbit saphenous artery
Conditions: rabbit saphenous artery
property_measured: activity/potency in words, saphenous artery

compound	result
O=c1[nH]c(=O)n([C@@H]2O[C@H](COP(=O)(O)OP(=O)(O)OP(=O)(O)O)[C@@H](O)[C@H]2O)cc1F [5-F-UTP, 5-Fluorouridine 5'-triphosphate]	inactive
Nc1ncnc2c1ncn2[C@@H]1O[C@H](COP(=O)(O)OP(=O)(O)OP(=O)(O)O)[C@@H](NCc2ccccc2)[C@H]1O [3'-Benzylamino-3'-deoxyATP]	inactive

====

Molecular target: P2Y receptor (turkey erythrocyte membranes) (Meleagris gallopavo)
Construct: from tissue; host or cells: washed turkey erythrocytes, ghosts prepared by hypotonic lysis
Experiment: Stimulation of phospholipase C (inositol phosphate formation) in turkey erythrocyte membranes
Type: biochemical
Conditions: turkey erythrocyte membranes; mean ± S.E.M. for at least 2 determinations; read-out: phosphatidyl inositol metabolism (K0.5, nM) erythrocyte
Answer each item with its documented EC50.

// sample CCCCCCCCCCSc1nc(N)c2ncn([C@@H]3O[C@H](COP(=O)(O)O)[C@@H](O)[C@H]3O)c2n1 [2-decylthio AMP] , its EC50 was 214 nM

// sample Nc1ncnc2c1ncn2[C@@H]1O[C@H](COP(=O)(O)OP(O)(O)=S)[C@@H](O)[C@H]1O [ADP-β-S, reference compound] , its EC50 was 96 nM

// sample C=CCCCCSc1nc(N)c2ncn([C@@H]3O[C@H](COP(=O)(O)O)[C@@H](O)[C@H]3O)c2n1 [2-(5-Hexenyl)thio-AMP] , its EC50 was 328 nM

// sample O=c1ccn([C@@H]2O[C@H](COP(=O)(O)OP(=O)(O)OP(=O)(O)O)[C@@H](O)[C@H]2O)c(=O)[nH]1 [UTP, reference compound] , its EC50 was 143000 nM

// sample Nc1ncnc2c1ncn2[C@@H]1O[C@H](COP(=O)(O)OP(=O)(O)OP(=O)(O)O)[C@@H](NCc2ccccc2)[C@H]1O [3'-Benzylamino-3'-deoxyATP] , its EC50 was > 100000 nM

// sample Nc1ncnc2c1nc(Br)n2[C@@H]1O[C@H](COP(=O)(O)OP(=O)(O)OP(=O)(O)O)[C@@H](O)[C@H]1O [8-Br-ATP, 8-Bromoadenosine 5'-triphosphate] , its EC50 was 47400 nM
